Form field: IC50 (one value per entry).
Target: androgen receptor LBD (Panvera) (Rattus norvegicus, UniProt P15207)
Construct: 5 pmol androgen receptor LBD (Panvera); purchased Panvera
Sequence (P15207 651-882 limits assumed): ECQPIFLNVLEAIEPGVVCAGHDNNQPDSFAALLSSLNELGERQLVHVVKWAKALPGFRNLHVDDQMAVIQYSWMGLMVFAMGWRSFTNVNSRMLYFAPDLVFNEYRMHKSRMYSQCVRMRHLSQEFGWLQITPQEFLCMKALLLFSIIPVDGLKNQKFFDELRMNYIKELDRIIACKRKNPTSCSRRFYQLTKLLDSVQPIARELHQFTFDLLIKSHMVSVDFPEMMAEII
Test: Androgen Receptor Filtration Binding Assay (PANVERA)
Details: [3H] R1881 tracer 0.5 nM; read-out: IC50 (nM), Androgen Receptor Binding (Panvera)

In the examples that follow, each entry is paired with its recorded IC50.
>>> print(df.to_string())
                                   compound     result
0  CC(O)(CSc1ccc(Cl)cc1)c1cc2ccccc2[nH]1 (stereo not drawn)  > 9600 nM
1  CC(O)(COC(=O)c1cccnc1)c1cc2cc(C#N)c(C(F)(F)F)cc2[nH]1 (stereo not drawn)  > 9500 nM

Would you kindly look at the next entry?
Please report IC50 for the following compound: CC(O)(c1cc2cc(C#N)c(C(F)(F)F)cc2[nH]1)S(=O)(=O)c1ccc(Cl)cc1 (racemic)
> 10000 nM
